molecular target: human PPARγ receptor (Homo sapiens); assay: Binding test by competition with tritiated reference agonist (hydroxyapatite gel); conditions: hPPARγ/RXRα heterodimers from SF9 insect cells
Quantity Kind: Kd (nM)
Numbers only, in nM.

• CN(Cc1cccc(-c2ccc(CC3SC(=O)NC3=O)cc2)c1)C(=O)c1ccc2cc(O)ccc2c1 (stereo not shown) [Example 17] = 15
• CN(Cc1cccc(-c2ccc(CC3SC(=O)NC3=O)cc2)c1)C(=O)c1ccc(C(=O)c2ccccc2)cc1 (stereo not shown) [Example 15] = 60
• CN(Cc1cccc(-c2ccc(CC3SC(=O)NC3=O)cc2)c1)C(=O)c1cccc2ccccc12 (stereo not shown) [Example 5] = 500

Task: What does the record list as Kd for CN(Cc1cccc(-c2ccc(CC3SC(=O)NC3=O)cc2)c1)C(=O)c1cc2ccccc2s1 (stereo not shown) [Example 11] ?
Result: 375

* * *

molecular target: human PPARγ receptor (Homo sapiens, UniProt P37231); assay: Binding test by competition with tritiated reference agonist (hydroxyapatite gel); details: hPPARγ/RXRα heterodimers from SF9 insect cells
Sequence (P19793 whole entry): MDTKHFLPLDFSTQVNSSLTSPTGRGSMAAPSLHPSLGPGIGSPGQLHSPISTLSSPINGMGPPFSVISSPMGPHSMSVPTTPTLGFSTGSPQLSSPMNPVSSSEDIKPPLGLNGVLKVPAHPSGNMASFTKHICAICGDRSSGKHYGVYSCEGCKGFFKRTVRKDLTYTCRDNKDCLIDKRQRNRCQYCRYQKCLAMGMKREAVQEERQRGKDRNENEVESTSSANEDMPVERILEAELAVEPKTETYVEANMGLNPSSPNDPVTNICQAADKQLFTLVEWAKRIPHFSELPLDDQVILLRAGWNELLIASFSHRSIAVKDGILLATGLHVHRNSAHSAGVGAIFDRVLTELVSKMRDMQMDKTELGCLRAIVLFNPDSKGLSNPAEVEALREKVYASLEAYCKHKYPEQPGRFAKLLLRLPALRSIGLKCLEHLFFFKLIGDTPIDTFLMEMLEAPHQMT
Sequence (P37231 whole entry): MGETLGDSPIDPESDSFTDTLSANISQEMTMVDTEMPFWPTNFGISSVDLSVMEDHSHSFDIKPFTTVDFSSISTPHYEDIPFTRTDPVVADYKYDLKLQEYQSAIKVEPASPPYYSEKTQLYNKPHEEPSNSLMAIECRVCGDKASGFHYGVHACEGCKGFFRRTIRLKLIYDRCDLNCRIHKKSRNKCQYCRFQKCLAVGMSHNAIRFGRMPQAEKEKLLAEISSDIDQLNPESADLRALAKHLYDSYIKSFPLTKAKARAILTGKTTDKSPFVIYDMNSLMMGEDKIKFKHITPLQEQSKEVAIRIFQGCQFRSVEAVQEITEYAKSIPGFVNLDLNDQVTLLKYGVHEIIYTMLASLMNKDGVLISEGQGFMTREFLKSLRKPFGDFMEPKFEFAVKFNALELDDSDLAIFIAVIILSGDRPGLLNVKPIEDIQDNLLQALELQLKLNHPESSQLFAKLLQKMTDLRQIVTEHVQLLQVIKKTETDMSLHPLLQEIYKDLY
For each of the compounds below, state its Kd.
One number for each entry, in nM.

Look over these answered cases.
* CN(Cc1cccc(-c2ccc(CC3SC(=O)NC3=O)cc2)c1)C(=O)c1ccc2ccccc2c1 (stereo not shown) [Example 6] | 60
* COCCOCOc1ccc2cc(C(=O)N(C)Cc3cccc(-c4ccc(CC5SC(=O)NC5=O)cc4)c3)ccc2c1 (stereo not shown) [Example 16] | 4

Below is a list of compounds. For each, state its recorded Kd.
1. CN(Cc1cccc(-c2ccc(CC3SC(=O)NC3=O)cc2)c1)C(=O)CCC1CCCC1 (stereo not shown) [Example 4]
2. CN(Cc1cccc(-c2ccc(CC3SC(=O)NC3=O)cc2)c1)C(=O)c1ccc(N(C)C)c2ccccc12 (stereo not shown) [Example 13]

Result:
[250, 500]
